Data provenance is patent US4518597A.

System: thrombocyte aggregation
TEST DETAILS: Antithrombotic activity: collagen-induced thrombocyte aggregation in platelet-rich plasma (Born and Cross)
Assay type: cell-based
CONDITION LABEL: Homo sapiens, 50% change in optical density, ten minutes at 37° C.
Method: The thrombocyte aggregation is determined in platelet-rich plasma from healthy test subjects using the method of Born and Cross [J. Physiol. 170, 397 (1964)]. […] The pattern of the decrease in optical density of the platelet suspension after administration of the aggregation-initiating substance is measured photometrically and recorded. […] The quantity of collagen used is as small as possible, but sufficient to produce an irreversible reaction curve. […]
Reported EC50 values are given for each entry in this list.
# unit: nM | format: bare number

Worked examples follow.
COMPOUND | EC50, nM
O=C1Nc2ccc(OCCCC[S+]([O-])c3ccccc3)cc2CO1 (stereo not drawn) | 1900
Cc1ccc(S(=N)(=O)CCCCOc2cc3c(cc2Br)NC(=O)OC3(C)C)cc1 (stereo not drawn) | 69

Now consider the entry below.
[in] # EC50 lookup, item CC1(C)OC(=O)Nc2ccc(OCCCC[S+]([O-])c3ccc(C4CCCCC4)cc3)cc21 (stereo not drawn)
[out] 320

###

System: thrombocyte aggregation
TEST DETAILS: Antithrombotic activity: collagen-induced thrombocyte aggregation in platelet-rich plasma (Born and Cross)
Type: cell-based
CONDITION LABEL: Homo sapiens, 50% change in optical density, ten minutes at 37° C.
Procedure: The thrombocyte aggregation is determined in platelet-rich plasma from healthy test subjects using the method of Born and Cross [J. Physiol. 170, 397 (1964)]. […] The pattern of the decrease in optical density of the platelet suspension after administration of the aggregation-initiating substance is measured photometrically and recorded. […] The quantity of collagen used is as small as possible, but sufficient to produce an irreversible reaction curve. […]
MEASUREMENT KIND: pEC50
Just the number, please; pEC50 means minus log10 of the concentration in mol/L.

COMPOUND | MEASUREMENT KIND | REPORTED RESULT
Cc1ccc([S+]([O-])CCCCOc2ccc3c(c2)C(C)(C)OC(=O)N3)cc1 (stereo not drawn) [D] | pEC50 | 6.48
COc1ccc(S(=N)(=O)CCCCOc2ccc3c(c2)C(C)(C)OC(=O)N3)cc1 (stereo not drawn) [C] | pEC50 | 6.57
COc1cccc(S(=N)(=O)CCCCOc2ccc3c(c2)C(C)(C)OC(=O)N3)c1 (stereo not drawn) [G] | pEC50 | 6.57

Now consider the entry below.
[in] # pEC50 lookup, item Cc1ccc([S+]([O-])CCCCOc2cc3c(cc2Cl)NC(=O)OC3(C)C)cc1 (stereo not drawn) [U]
[out] 7.55

###

Test system: thrombocyte aggregation
TEST DETAILS: Antithrombotic activity: collagen-induced thrombocyte aggregation in platelet-rich plasma (Born and Cross)
Assay type: cell-based
CONDITION LABEL: Homo sapiens, 50% change in optical density, ten minutes at 37° C.
Could you please mark Satisfied for values of EC50 below 300 nM and Not satisfied for values at or above it?

COMPOUND | MEASUREMENT TARGET | ANSWER LABEL
CC(=O)N=S(=O)(CCCCOc1ccc2c(c1)C(C)(C)OC(=O)N2)c1cc(C(C)(C)C)c(O)c(C(C)(C)C)c1 (centres unmarked) [S] | thrombocyte aggregation | Not satisfied
Cc1cc(S(=N)(=O)CCCCOc2ccc3c(c2)C(C)(C)OC(=O)N3)ccc1Br (centres unmarked) [M] | thrombocyte aggregation | Satisfied
CC1(C)OC(=O)Nc2ccc(OCCCCS(=N)(=O)c3ccc(Br)cc3)cc21 (centres unmarked) [Compound I] | thrombocyte aggregation | Not satisfied
CC1(C)OC(=O)Nc2ccc(OCCCC[S+]([O-])c3cc(Br)c(N)c(Br)c3)cc21 (centres unmarked) [P] | thrombocyte aggregation | Not satisfied
COc1ccc(S(=O)(CCCCOc2ccc3c(c2)C(C)(C)OC(=O)N3)=NC(C)=O)cc1OC (centres unmarked) [R] | thrombocyte aggregation | Not satisfied
COc1ccc(S(=N)(=O)CCCCOc2ccc3c(c2)C(C)(C)OC(=O)N3)cc1OC (centres unmarked) [O] | thrombocyte aggregation | Satisfied
Cc1ccc(S(=N)(=O)CCCCOc2ccc3c(c2)C(C)(C)OC(=O)N3)cc1 (centres unmarked) [N] | thrombocyte aggregation | Satisfied
CC1(C)OC(=O)Nc2ccc(OCCCC[S+]([O-])c3ccc(Br)cc3)cc21 (centres unmarked) [L] | thrombocyte aggregation | Not satisfied
CC1(C)OC(=O)Nc2ccc(OCCCCS(=N)(=O)c3ccc(O)cc3)cc21 (centres unmarked) [B] | thrombocyte aggregation | Satisfied
CC1(C)OC(=O)Nc2ccc(OCCCCS(=N)(=O)c3ccc(F)cc3)cc21 (centres unmarked) [H] | thrombocyte aggregation | Not satisfied

[in] Criterion: EC50 strictly below 300 nM. Is it met by CC1(C)OC(=O)Nc2ccc(OCCCCS(=N)(=O)c3ccc(-c4ccccc4)cc3)cc21 (centres unmarked) [Q] ?
[out] Satisfied

[in] Criterion: EC50 strictly below 300 nM. Is it met by CC1(C)OC(=O)Nc2ccc(OCCCCS(=N)(=O)c3ccc(Cl)c(Cl)c3)cc21 (centres unmarked) [F] ?
[out] Satisfied

[in] Criterion: EC50 strictly below 300 nM. Is it met by CC1(C)OC(=O)Nc2ccc(OCCCC[S+]([O-])c3ccc(Cl)cc3)cc21 (centres unmarked) [Compound A] ?
[out] Not satisfied

[in] Criterion: EC50 strictly below 300 nM. Is it met by CC1(C)OC(=O)Nc2cc(Br)c(OCCCC[S+]([O-])c3ccc(Cl)c(Cl)c3)cc21 (centres unmarked) [V] ?
[out] Satisfied
